FYI, the data here is from the supplement of paper PMC10307832.

test system: EKVX; experiment: relative viability (nuclei count vs DMSO), 5 days (fraction); higher = more cells survive; details: first compound 0.1265 µM
readout_name: relative viability

* C[C@@H]1CN(CC(=O)Nc2ccc3c(c2)Cc2cccc(-c4cc(=O)cc(N5CCOCC5)o4)c2S3)C[C@H](C)O1 + COc1cc2c(Oc3ccc(NC(=O)C4(C(=O)Nc5ccc(F)cc5)CC4)cc3F)ccnc2cc1OCCCN1CCOCC1 [Foretinib] (partner 0.25 µM) | 1.16
* C[C@@H]1CN(CC(=O)Nc2ccc3c(c2)Cc2cccc(-c4cc(=O)cc(N5CCOCC5)o4)c2S3)C[C@H](C)O1 + Cc1nc(NC(=O)N2CCC[C@H]2C(N)=O)sc1-c1ccnc(C(C)(C)C(F)(F)F)c1 [Alpelisib] (partner 2 µM) | 0.818
* COc1cc(N2CCC(C(N)=O)CC2)ccc1Nc1nc(N)c(Cl)c(Nc2ccccc2S(=O)(=O)C(C)C)n1 [HG-5-88-01] + C[C@]1(O)C[C@@H](c2nc(-c3ccc4ccc(-c5ccccc5)nc4c3)c3c(N)nccn32)C1 [Linsitinib] (partner 1 µM) | 1.11

Consider now this further compound.
Form field relative viability, entry Clc1ccc(Nc2nnc(Cc3ccncc3)c3ccccc23)cc1 [Vatalanib] + Nc1nc2[nH]cc(CCc3ccc(C(=O)N[C@@H](CCC(=O)O)C(=O)O)cc3)c2c(=O)[nH]1 [Pemetrexed] (partner 0.2 µM) : 0.425
